system: Botulinum neurotoxin type F light chain protease (Clostridium botulinum); assay: Botulinum neurotoxin type F light chain protease inhibition, multiplex microsphere flow cytometry, validation set (AID 588459); settings: multiplex microsphere protease substrate cleavage assay, at 10 µM, active compounds read high
Catalogue of molecules with associated inhibition
Answer in %, number only, no unit symbol.

INSERT INTO results (molecule, quantity_unit, number) VALUES
  ('CC(=O)OCC(=O)[C@@]1(O)[C@H](C)C[C@H]2[C@@H]3CCC4=CC(=O)C=C[C@]4(C)[C@@]3(F)[C@@H](O)C[C@@]21C', '%', 3),
  ('Cc1ccc(S(=O)(=O)NC(C(=O)Oc2ccc3c(C(F)(F)F)cc(=O)oc3c2)c2ccccc2)cc1 (stereo not given)', '%', 1.6),
  ('O=C(O)c1ccc(OCCn2ccnc2)cc1', '%', 2.9);

What does the data say about its inhibition? Entry: "CCOc1ccc2[nH]c3c(=O)n(CCc4ccc(OC)cc4)cnc3c2c1"
1.7

Requested field: inhibition. Item: "Cc1cc(=O)oc(C)c1C(=O)NCCC(C)C"
-1.3

----------
target: Lethal factor (Bacillus anthracis) (UniProt P15917); test: Lethal factor protease inhibitors, Bacillus anthracis, multiplex microsphere cleavage assay, validation set (AID 588461); conditions: flow cytometry, at 10 µM, active compounds read high
Sequence (P15917 whole entry, looked up): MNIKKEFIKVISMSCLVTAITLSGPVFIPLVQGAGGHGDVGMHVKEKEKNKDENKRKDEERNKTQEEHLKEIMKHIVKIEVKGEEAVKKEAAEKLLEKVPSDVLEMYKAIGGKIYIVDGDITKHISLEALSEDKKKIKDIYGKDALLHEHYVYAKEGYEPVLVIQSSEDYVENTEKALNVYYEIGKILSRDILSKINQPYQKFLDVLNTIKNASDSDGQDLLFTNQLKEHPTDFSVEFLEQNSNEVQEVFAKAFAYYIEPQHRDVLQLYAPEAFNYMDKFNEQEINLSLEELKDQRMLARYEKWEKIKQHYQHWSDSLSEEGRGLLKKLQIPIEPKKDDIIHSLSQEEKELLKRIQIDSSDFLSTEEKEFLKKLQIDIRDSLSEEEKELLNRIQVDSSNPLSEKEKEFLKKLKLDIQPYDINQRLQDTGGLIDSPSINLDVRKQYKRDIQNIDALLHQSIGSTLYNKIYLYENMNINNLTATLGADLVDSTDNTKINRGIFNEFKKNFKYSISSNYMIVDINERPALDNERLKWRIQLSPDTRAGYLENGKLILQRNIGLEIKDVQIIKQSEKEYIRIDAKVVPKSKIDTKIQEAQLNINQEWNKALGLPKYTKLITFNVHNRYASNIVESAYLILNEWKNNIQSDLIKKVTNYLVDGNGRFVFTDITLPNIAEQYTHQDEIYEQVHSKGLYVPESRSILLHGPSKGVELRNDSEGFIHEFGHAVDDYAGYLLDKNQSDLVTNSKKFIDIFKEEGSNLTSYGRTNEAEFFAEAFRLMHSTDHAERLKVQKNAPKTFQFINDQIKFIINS
In this section, each of the compounds is paired with its reported inhibition.
# value in %; strip the unit string

Known results for compounds:
INSERT INTO results (compound, quantity_unit, number) VALUES
  ('C[C@]12CC[C@@H]3c4ccc(O)cc4C(=O)C[C@H]3[C@@H]1CC[C@@H]2O', '%', -6.8),
  ('Cn1c(=O)c(C(=O)NCCO)c(O)c2ccccc21', '%', -2.2),
  ('Cc1ccc(/C(=C\CN2CCCC2)c2ccccn2)cc1', '%', 11.9);

Given "CC(C)(S)[C@@H](N)C(=O)O" , state its recorded inhibition.
1.1

Need inhibition of COc1ccc(C2CC(c3ccc([N+](=O)[O-])cc3)=NN2C(=O)c2ccccc2)cc1OC (configuration not stated) , thanks.
2.3

----------
assay: promoters of myeloid differentiation in arrested cells, primary screen, cell-based, GFP/MAC1 double positive, flow cytometry, validation set (AID 588685); conditions: ER-HoxA9 marrow cells, active compounds read high;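 note: compound exposure lasts four days before antibody staining and flow analysis; 0% = DMSO wells and 100% = 5 µM fulvestrant positive control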
EXPERIMENTAL READOUT: differentiation response (%)
I only need the number, in %, no unit after it.

Known results for compounds:
INSERT INTO measurements (compound, number) VALUES
  ('C[N+](C)(C)Cc1ccccc1', -14.8),
  ('c1ccc2c(c1)OCC(C1=NCCN1)O2 (stereo unspecified)', -19.6),
  ('O=c1[nH]c(=S)n(-c2ccccc2)c(O)c1/C=N/N1CCCCC1c1cccnc1 (stereo unspecified)', 4.15),
  ('C[C@H]1CCCC(=O)CCCCCc2cc(O)cc(O)c2C(=O)O1', 5.85),
  ('Cc1ccc(/C=C2/C(=O)NC(=O)N(C)C2=O)cc1', -0.2),
  ('CC12CN3CC(C)(CN(C1)C3c1cccnc1)C2=O (stereo unspecified)', -3.28),
  ('CC(C)(C)C(O)C(Oc1ccc(Cl)cc1)n1cncn1 (stereo unspecified)', 6.83),
  ('Clc1ccc(COC(Cn2ccnc2)c2ccc(Cl)cc2Cl)cc1 (stereo unspecified)', 1.28),
  ('C[C@H]1CC[C@@]2(C)[C@@H](CC[C@@H]3[C@@H]2CC[C@]2(C)[C@@H](O)CC[C@@H]32)C1', -8.8),
  ('C[N+]1(C)C2CCC1CC(OC(=O)C(CO)c1ccccc1)C2 (stereo unspecified)', -6.6);

Suppose we examine the compound "C#C[C@]1(O)CC[C@H]2[C@@H]3CCC4=CC(=O)CC[C@]4(C)[C@H]3CC[C@@]21C" ; what differentiation response value has been reported?
-0.82

For C=CC1CN2CCC1CC2[C@@H](OC(=O)c1ccc(OC)cc1)c1ccnc2ccccc12 (stereo partly specified) , what is its reported differentiation response?
-8.19

Fill in the blank: the reported differentiation response of "O=c1cccc2n1C[C@H]1C[C@@H]2CN2CCCC[C@@H]12" is ____.
-24.8

Could you tell me which differentiation response is on file for CCn1c(O)c(C(=O)CC2NCCc3ccccc32)c(=O)n(CC)c1=S (stereo unspecified) ?
-15.2

Reported differentiation response, compound Cc1ccsc1C(=O)C1CCCN(Cc2cc3ccccc3o2)C1 (stereo unspecified) : ____
-4.64
